Assay: log P (pH 2.7) given with the preparation examples
Type: physicochemical
Settings: reversed-phase HPLC column (C18), pH 2.7, pH 2.7
readout-name: logP
Respond using a number only.

### Prompt Would you kindly share the measured logP for O=C(OC1CCCCC1Cl)C1CC(c2csc(C3CCN(C(=O)Cn4nc(C(F)F)cc4C(F)F)CC3)n2)=NO1 (stereo not shown) ?
### Response 3.43

###

Exercise: state measured chromatographic logP for each of the molecules provided.
Assay: physchem
Settings: pH 2.3
Respond using a number only.

### Prompt Would you kindly share the measured chromatographic logP for COC(=O)C1CC(c2csc(C3CCN(C(=O)Cn4nc(C(F)F)cc4C(F)F)CC3)n2)=NO1 (centres unmarked) ?
### Response 2.28

### Prompt And then O=C(OC1CCCCC1Cl)C1CC(c2csc(C3CCN(C(=O)Cn4nc(C(F)F)cc4C(F)F)CC3)n2)=NO1 (centres unmarked) , what is it?
### Response 3.42
